assay: Therapeutic index (LD50/ED50), standard procedures; conditions: in vivo

{"columns": ["COMPOUND", "selectivity ratio"],
 "data": [
  ["CCCC(=O)OCOC(=O)C(C)(C)C [Example I, Pivaloyloxymethyl butyrate]", "15 to 20"]
]}

====

tested on: leukemic cells from six myeloid leukemic patients; test: Cytotoxicity, viability of cells 60 hours after exposure, Trypan Blue exclusion, cells (i); format: cell-based; details: Homo sapiens, read-out: Concentration which resulted in 50% inhibition (LD50), viability
Where a name gives a salt, the structure may show the parent alone.
This section presents molecules with their documented IC50 values.

{"columns": ["MOLECULE", "IC50 / µM"],
 "data": [
  ["CCCC(=O)OCOC(=O)C(C)(C)C [Example I, Pivaloyloxymethyl butyrate]", 150],
  ["CCCC(=O)O [butyric acid/salts, butyric acid]", 1000]
]}

====

system: promyelocytic cell line HL-60; test: Cytotoxicity, viability of cells 60 hours after exposure, Trypan Blue exclusion, cells (ii); assay type: cell-based; conditions: Homo sapiens, read-out: Concentration which resulted in 50% inhibition (LD50), viability
pIC50: −log10 of the molar value. Structures can show the parent of a compound that is named as a salt.
Measured pIC50 by item
MEASURED METRIC: pIC50

{"columns": ["COMPOUND", "SYSTEM TESTED", "MEASURED METRIC", "ASSAY RESULT"],
 "data": [
  ["CCCC(=O)O [butyric acid/salts, butyric acid]", "promyelocytic cell line HL-60", "pIC50", 3.40],
  ["CCCC(=O)OCOC(=O)C(C)(C)C [Example I, Pivaloyloxymethyl butyrate]", "promyelocytic cell line HL-60", "pIC50", 4.00]
]}

The reported numbers originate from patent US5200553A.
